Please provide measured max response for the entries that follow.
Target: Nuclear receptor subfamily 1 group I member 2 (Rattus norvegicus)
Assay: qHTS assay for small molecule activators of the rat pregnane X receptor (rPXR) signaling pathway (AID 651751); further: 0% is about no effect
Conditions: rPXR reporter cells, luciferase (One-Glo), 24 h
Activity calls are given as the source filed them. How the calls were made is not given here.

Please review the entries below; each comes with its answer.
INSERT INTO measurements (molecule, measured_result) VALUES
  ('Cc1ccc2ccccc2c1', '6.07% (inactive)'),
  ('O=C(O)C1C2CCC(O2)C1C(=O)O (stereo unspecified)', '4.79% (inactive)'),
  ('C=C(C)C(=O)OCC1CO1 (stereo unspecified)', '-2.46% (inactive)');

Field: max response. Fill in for each record below.
1. C=CC(=C)C
2. N#Cc1c(Cl)cccc1Cl
3. C=CCc1ccc2c(c1)OCO2
4. CNC(=O)Oc1ccccc1OC(C)C
5. CCCC(=O)Cl

11% (inactive)
2.13% (inactive)
3.14% (inactive)
-0.132% (inactive)
-1.41% (inactive)

Kindly give each listed record's max response.
1. CCC(=O)Nc1ccc(Cl)c(Cl)c1
2. ClC1=C(Cl)C2(Cl)C3C4C=CC(C4)C3C1(Cl)C2(Cl)Cl (stereo unspecified)
3. C[C@]12CC[C@H]3[C@@H](CCC4=CC(=O)CC[C@@]43C)[C@@H]1CC[C@@H]2O
4. C=CC(=O)OCC
5. CNC(=O)Oc1cccc2c1OC(C)(C)O2

6.65% (inactive)
5.53% (inactive)
3.05% (inactive)
-4.65% (inactive)
2.1% (inactive)
